Tgt: BCL-XL (Homo sapiens)
Construct: endogenous in cells; host or cells: MOLT-4
Procedure text: BCL-XL degradation assay, western blot in MOLT-4 cells, 16 h
Format: cell-based
Assay conditions: western blot, MOLT-4 cells, 16 h; read-out: Bcl-xL WB in MOLT-4 degradation 16 h: Average Dmax %
Exercise: state measured Dmax for each of the compounds provided.

[[record]]
compound = "CC1(C)CCC(c2ccc(Cl)cc2)=C(CN2CCN(c3ccc(C(=O)NS(=O)(=O)c4ccc(N[C@H](CCN5CCN(C(=O)COc6cc(F)ccc6CNC(=O)[C@@H]6C[C@@H](O)CN6C(=O)[C@@H](NC(=O)C6(F)CC6)C(C)(C)C)CC5)CSc5ccccc5)c(S(=O)(=O)C(F)(F)F)c4)cc3)CC2)C1 [I-98]"
observable = "Dmax"
observed_measurement = "< 50%"


Look up Dmax for the entries below, preserving their order.
1. Cc1ncsc1-c1ccc([C@H](C)NC(=O)[C@@H]2C[C@@H](O)CN2C(=O)[C@@H](NC(=O)CCCN(C)C(=O)CCCCCc2ccc(N3CCc4cccc(C(=O)Nc5nc6ccccc6s5)c4C3)nc2C(=O)O)C(C)(C)C)cc1 [I-36]
2. Cc1ncsc1-c1ccc([C@H](C)NC(=O)[C@@H]2C[C@@H](O)CN2C(=O)[C@@H](NC(=O)CCCCCCCS(=O)(=O)NC(=O)c2nc(N3CCc4cccc(C(=O)Nc5nc6ncccc6s5)c4C3)ccc2-c2cnn(CC34CC5CC(CC(C5)C3)C4)c2C)C(C)(C)C)cc1 [I-140]
3. Cc1cc([C@H](C(=O)N2C[C@H](O)C[C@H]2C(=O)NCc2ccc(-c3scnc3C)cc2OCC(=O)N2CCN(CC[C@H](CSc3ccccc3)Nc3ccc(S(=O)(=O)NC(=O)c4ccc(N5CCN(CC6=C(c7ccc(Cl)cc7)CCC(C)(C)C6)CC5)cc4)cc3S(=O)(=O)C(F)(F)F)CC2)C(C)C)on1 [I-134]

OUT:
1. < 50%
2. > 75%
3. < 50%

# batch size: 5; output Dmax per entry
1. Cc1ncsc1-c1ccc([C@H](C)NC(=O)[C@@H]2C[C@@H](O)CN2C(=O)[C@@H](NC(=O)CCCC(=O)N(C)CC#Cc2ccc(OCCCc3sc(N4CCc5cccc(C(=O)Nc6nc7ccccc7s6)c5C4)nc3C(=O)O)c(F)c2)C(C)(C)C)cc1 [I-2]
2. C#Cc1ccc([C@H](CO)NC(=O)[C@@H]2C[C@@H](O)CN2C(=O)[C@@H](NC(=O)CCCCCC(=O)N2CCN(CC[C@H](CSc3ccccc3)Nc3ccc(S(=O)(=O)NC(=O)c4ccc(N5CCN(CC6=C(c7ccc(Cl)cc7)CCC(C)(C)C6)CC5)cc4)cc3S(=O)(=O)C(F)(F)F)CC2)C(C)(C)C)cc1 [I-116]
3. Cc1ncsc1-c1ccc(CNC(=O)[C@@H]2C[C@@H](O)CN2C(=O)[C@@H](NC(=O)C2(F)CC2)C(C)(C)C)c(OCCCCCCCC(=O)N(C)CC#Cc2cccc(F)c2OCCCc2sc(N3CCc4cccc(C(=O)Nc5nc6ccccc6s5)c4C3)nc2C(=O)O)c1 [I-20]
4. Cc1cc(N(CCN(C)C(=O)CCCCCCCCOc2cc(-c3scnc3C)ccc2CNC(=O)[C@@H]2C[C@@H](O)CN2C(=O)[C@@H](NC(=O)C2(F)CC2)C(C)(C)C)c2ccc(-c3cnn(CC4CCCCC4)c3C)c(C(=O)O)n2)nnc1Nc1nc2ccccc2s1 [I-104]
5. Cc1ncsc1-c1ccc(CNC(=O)[C@@H]2C[C@@H](O)CN2C(=O)[C@H](c2cc(N3CC4(CN(C(=O)CCCCC(=O)N(C)CC#Cc5ccc(OCCCc6ccc(N7CCc8cccc(C(=O)Nc9nc%10ccccc%10s9)c8C7)nc6C(=O)O)c(F)c5)C4)C3)no2)C(C)C)cc1 [I-192]

OUT:
["> 75%", "> 75%", "> 75%", "< 50%", "50 to 75%"]

Quick batch: Dmax for everything below.
1. Cc1ncsc1-c1ccc(CNC(=O)[C@@H]2C[C@@H](O)CN2C(=O)[C@@H](NC(=O)C2(F)CC2)C(C)(C)C)c(OCCCC(=O)NCCOc2ccc(C(=O)Nc3nc4ccccc4s3)c3c2CCN(c2ccc(-c4cnn(CC5CCCCC5)c4C)c(C(=O)O)n2)C3)c1 [I-46]
2. Cc1cc(N(CCN(C)C(=O)CCCC(=O)N[C@H](C(=O)N2C[C@H](O)C[C@H]2C(=O)N[C@@H](C)c2ccc(-c3scnc3C)cc2)C(C)(C)C)c2ccc(-c3cnn(CC4CCCCC4)c3C)c(C(=O)O)n2)nnc1Nc1nc2ccccc2s1 [I-99]

OUT:
["50 to 75%", "50 to 75%"]

---

Tgt: BCL-XL (Homo sapiens)
Construct: endogenous in cells; host or cells: MOLT-4
Procedure text: Bcl-xL ELISA degradation in MOLT-4 cells, 6 h
Type: cell-based
Assay conditions: read-out: Bcl-xL ELISA in MOLT-4 degradation 6 h: Mean external-Abs DC50
Procedure: The letter codes for BCL-XL DC50 include: A (<0.01 μM); B (0.01-0.1 μM); C (>[…]); D (>0.5-1.0 μM); and E (>1.0 μM). The letter codes for Dmax % include A (>75%); B (50 to 75%); C (<50%).
Observable: DC50

Below, each entry is followed by its recorded DC50 result.
[[record]]
molecule = "Cc1cc(N(C)c2ccc(-c3cnn(CC45CC6CC(CC(C6)C4)C5)c3C)c(C(=O)NS(=O)(=O)CCCCCC(=O)N[C@H](C(=O)N3C[C@H](O)C[C@H]3C(=O)N[C@@H](C)c3ccc(C#N)cc3)C(C)(C)C)n2)nnc1Nc1nc2ccccc2s1"
observed_measurement = "10 to 100 nM"

[[record]]
molecule = "C#Cc1ccc([C@H](CO)NC(=O)[C@@H]2C[C@@H](O)CN2C(=O)[C@@H](NC(=O)C2CCN(c3ccc(S(=O)(=O)NC(=O)c4nc(N5CCc6cccc(C(=O)Nc7nc8ccccc8s7)c6C5)ccc4-c4cnn(CC5CCCCC5)c4C)cc3)CC2)C(C)(C)C)cc1"
observed_measurement = "10 to 100 nM"

[[record]]
molecule = "Cc1ncsc1-c1ccc(CNC(=O)[C@@H]2C[C@@H](O)CN2C(=O)[C@@H](NC(=O)CCc2cccc(S(=O)(=O)NC(=O)c3nc(N4CCc5cccc(C(=O)Nc6nc7ccccc7s6)c5C4)ccc3-c3cnn(CC4CCCCC4)c3C)c2)C(C)(C)C)cc1 [I-321]"
observed_measurement = "10 to 100 nM"

[[record]]
molecule = "Cc1ncsc1-c1ccc([C@H](C)NC(=O)[C@@H]2C[C@@H](O)CN2C(=O)[C@@H](NC(=O)C2CCN(c3cccc(S(=O)(=O)NC(=O)c4nc(N5CCc6cccc(C(=O)Nc7nc8ccccc8s7)c6C5)ccc4-c4cnn(CC5CCCCC5)c4C)c3)CC2)C(C)(C)C)cc1"
observed_measurement = "< 10 nM"

[[record]]
molecule = "Cc1ncsc1-c1ccc(CNC(=O)[C@@H]2C[C@@H](O)CN2C(=O)[C@@H](NC(=O)C2(F)CC2)C(C)(C)C)c(OCCN2CCC(CS(=O)(=O)NC(=O)c3nc(N4CCc5cccc(C(=O)Nc6nc7ccccc7s6)c5C4)ccc3-c3cnn(CC4CCCCC4)c3C)CC2)c1"
observed_measurement = "10 to 100 nM"


Record DC50 for all entries; do not skip any.
1. Cc1ncsc1-c1ccc([C@H](C)NC(=O)[C@@H]2C[C@@H](O)CN2C(=O)[C@@H](NC(=O)C2CCN(c3ccc(S(=O)(=O)NC(=O)c4nc(N5CCc6cccc(C(=O)Nc7nc8ccccc8s7)c6C5)ccc4-c4cccc(N(C)C(C)C)c4C)cc3)CC2)C(C)(C)C)cc1
2. C#Cc1ccc([C@H](C)NC(=O)[C@@H]2C[C@@H](O)CN2C(=O)[C@@H](NC(=O)CCCCCS(=O)(=O)NC(=O)c2nc(N3CCc4cccc(C(=O)Nc5nc6cccnc6s5)c4C3)ccc2-c2cnn(CC3CCCCC3)c2C)C(C)(C)C)c(O)c1

OUT:
1: 100 to 500 nM; 2: < 10 nM

IN: Which measured DC50 value corresponds to `Cc1ncsc1-c1ccc(CNC(=O)[C@@H]2C[C@@H](O)CN2C(=O)[C@@H](NC(=O)C2(F)CC2)C(C)(C)C)c(OCCCCCS(=O)(=O)NC(=O)c2nc(N3CCc4cccc(C(=O)Nc5nc6cccnc6s5)c4C3)ccc2-c2cnn(CC3CCCCC3)c2C)c1` ?
OUT: 10 to 100 nM

---

Tgt: BCL-XL (Homo sapiens, UniProt Q07817)
Construct: endogenous in cells; host or cells: MOLT-4
Sequence (Q07817 whole entry): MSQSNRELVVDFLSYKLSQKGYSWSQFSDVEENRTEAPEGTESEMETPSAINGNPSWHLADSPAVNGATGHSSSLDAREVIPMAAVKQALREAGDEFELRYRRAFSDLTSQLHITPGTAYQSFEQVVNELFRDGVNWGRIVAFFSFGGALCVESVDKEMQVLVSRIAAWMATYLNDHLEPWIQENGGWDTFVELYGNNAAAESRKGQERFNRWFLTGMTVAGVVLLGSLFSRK
Procedure text: Bcl-xL ELISA degradation in MOLT-4 cells, 6 h
Format: cell-based
Observable: Dmax

Guide cases for Dmax, answers given:
[[record]]
compound_structure_string = "Cc1ncsc1-c1ccc([C@H](C)NC(=O)[C@@H]2C[C@@H](O)CN2C(=O)[C@@H](NC(=O)C2CCN(c3ccc(S(=O)(=O)NC(=O)c4nc(N5CCc6cccc(C(=O)Nc7nc8ccccc8s7)c6C5)ccc4-c4ccnc(N(C)C(C)C)c4C)cc3)CC2)C(C)(C)C)cc1"
observed_measurement = "> 75%"

[[record]]
compound_structure_string = "C#Cc1ccc(CNC(=O)[C@@H]2C[C@@H](O)CN2C(=O)[C@@H](NC(=O)CCN(C)CCS(=O)(=O)NC(=O)c2nc(N(C)c3cc(C)c(Nc4nc5ccccc5s4)nn3)ccc2-c2cnn(CC34CC5CC(CC(C5)C3)C4)c2C)C(C)(C)C)cc1"
observed_measurement = "> 75%"

[[record]]
compound_structure_string = "C#Cc1ccc([C@H](C)NC(=O)[C@@H]2C[C@@H](O)CN2C(=O)[C@@H](NC(=O)CCCCCS(=O)(=O)NC(=O)c2nc(N(C)c3cc(C)c(Nc4nc5ccccc5s4)nn3)ccc2-c2cnn(CC(C)(C)C)c2C)C(C)(C)C)cc1"
observed_measurement = "> 75%"


Shift focus to the following entry.
IN: Given the entry `Cc1ncsc1-c1ccc([C@H](C)NC(=O)[C@@H]2C[C@@H](O)CN2C(=O)[C@@H](NC(=O)C2CCN(c3ccc(S(=O)(=O)NC(=O)c4nc(N5CCc6cccc(C(=O)Nc7nc8ccccc8s7)c6C5)ccc4-c4cccc5c4cnn5C(C)C)cc3)CC2)C(C)(C)C)cc1` , what Dmax was observed with BCL-XL (Homo sapiens, UniProt Q07817)?
OUT: < 50%
